Exercise: for every item that follows, state its recorded NanoBRET Abs IC50.
# subject-of-test: T1, Bcat-Halo (beta-catenin HaloTag construct transfected into HEK293 cells) (UniProt P35222 1-781)
# T1 sequence (looked up): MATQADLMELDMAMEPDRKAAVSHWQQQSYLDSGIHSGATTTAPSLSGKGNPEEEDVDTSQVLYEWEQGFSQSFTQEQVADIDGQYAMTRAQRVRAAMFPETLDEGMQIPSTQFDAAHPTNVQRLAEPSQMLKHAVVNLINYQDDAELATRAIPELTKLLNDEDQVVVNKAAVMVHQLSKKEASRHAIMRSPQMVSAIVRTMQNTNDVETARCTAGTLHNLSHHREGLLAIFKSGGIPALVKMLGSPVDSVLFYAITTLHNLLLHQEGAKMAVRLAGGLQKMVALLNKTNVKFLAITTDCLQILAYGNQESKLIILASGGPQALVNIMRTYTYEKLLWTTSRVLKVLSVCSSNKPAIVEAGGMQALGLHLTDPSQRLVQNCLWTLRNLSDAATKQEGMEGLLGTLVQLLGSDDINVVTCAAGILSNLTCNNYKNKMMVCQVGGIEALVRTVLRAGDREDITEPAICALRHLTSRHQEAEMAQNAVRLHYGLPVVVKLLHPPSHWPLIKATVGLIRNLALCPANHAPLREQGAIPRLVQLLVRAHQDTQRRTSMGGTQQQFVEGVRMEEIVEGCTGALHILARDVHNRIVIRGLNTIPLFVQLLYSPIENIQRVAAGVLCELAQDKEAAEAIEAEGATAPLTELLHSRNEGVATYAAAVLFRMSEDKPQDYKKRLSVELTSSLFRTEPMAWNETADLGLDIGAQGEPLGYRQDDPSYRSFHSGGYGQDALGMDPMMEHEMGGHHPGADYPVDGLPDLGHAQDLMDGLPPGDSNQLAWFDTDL
# assay-info: cell-based or functional assay
Starred links: 1 amine or outer side, 2 acyl side, 3 side chain; linkers in the order of their positions; H or OH if unused. Positions of bridges follow the written chain, without caps; N, C: chain ends. Non-standard residues stand in square brackets, D forms with d. Groups on a side chain read outwards from the residue. Primed or numbered codes have the meaning given here. *: point of attachment. PyrS2″ = (S)-3-amino-1-((pent-4-en-1-yloxy)carbonyl)pyrrolidine-3-carboxylic acid (stapling residue), C=CCCCOC(=O)N1CC[C@@](N[*:1])(C(=O)[*:2])C1; B5(4) = 2,2-bis(4-pentenyl)glycine = 2-amino-2-(pent-4-en-1-yl)hept-6-enoic acid (stitching residue), C=CCCCC(CCCC=C)(N[*:1])C(=O)[*:2]; PyrS2 = (S)-3-amino-1-((pent-4-en-1-yloxy)carbonyl)pyrrolidine-3-carboxylic acid, C=CCCCOC(=O)N1CC[C@@](N[*:1])(C(=O)[*:2])C1; Lithocholoyl = C[C@H](CCC(=O)*)[C@H]1CC[C@H]2[C@@H]3CC[C@@H]4C[C@H](O)CC[C@]4(C)[C@H]3CC[C@]12C; MorphAsn = (S)-2-amino-4-morpholino-4-oxobutanoic acid, O=C(C[C@H](N[*:1])C(=O)[*:2])N1CCOCC1; B5(3) = 2,2-bis(4-pentenyl)glycine (stitching residue), C=CCCCC(CCCC=C)(N[*:1])C(=O)[*:2]; Nva(5-morpholino) = N[C@@H](CCCN1CCOCC1)C(=O)O; Bta = N[C@@H](Cc1csc2ccccc12)C(=O)O; αAllylPro = C=CC[C@@]1(C(=O)O)CCCN1; tBuAla = CC(C)(C)C[C@H](N)C(=O)O; 3Thi = N[C@@H](Cc1ccsc1)C(=O)O; PEG2′ = not defined here

In: Please give measured NanoBRET Abs IC50 of the following entry: Ac-[αAllylPro]DK([PEG2′-Lithocholoyl])[B5(4)]DDAAFL[PyrS2][3Thi][Bta]Q-NH2 (staple 1-4, 4-11) [I-1470]
Out: > 20 µM

In: Consider the binder Ac-[αAllylPro]D[tBuAla][B5(3)]DD[MorphAsn]AFL[PyrS2″][3Thi][Bta]Q-NH2 (staple 1-4, 4-11) [I-1483] and give its recorded NanoBRET Abs IC50.
Out: > 20 µM

In: Please report NanoBRET Abs IC50 for the following binder: Ac-[αAllylPro]D[tBuAla][B5(3)]DD[Nva(5-morpholino)]AFL[PyrS2″][3Thi][Bta]Q-NH2 (staple 1-4, 4-11) [I-1481]
Out: 39.7 µM

This collection of values is drawn from patent US20240116985A1.
